Attribute: %Inh
# Tested on: BRSK1;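 also: KINOMEscan kinase panel screen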
# condition_label: concentration: 1 μM, replicates: in singlicate; n = 1
Report the figure in % without appending any unit label.

Here's what some known entries look like.
Cn1cc(-c2cnc(N)c3c(-c4ccc5c(c4)CCN5C(=O)Cc4ccccc4)csc23)cn1 [GSK2593074] | 0
c1ccc(Oc2ccc(Nc3ccnc4cc(-c5ccc(CN6CCCCC6)o5)ccc34)cc2)nc1 [GW567143] | 6
CN(C)c1ncnc2nc[nH]c12 [SKF-31736] | 0
Cc1cccc(Nc2nc(N[C@H]3CCCC[C@H]3N)ncc2C(N)=O)c1.Cl [GSK986310] | 16
O=C(Nc1c(F)cccc1F)c1cc(C(=O)c2ccccc2F)c[nH]1 [GSK1326180] | 0

Query block: Specify measured %Inh for CC(C)(C)c1ccc(C(=O)Nc2cn3cc(-n4ccnc4)ccc3n2)cc1 .
Result block: 31

Query block: Specify measured %Inh for Cc1ccccc1CC(=O)N1CCc2cc(-c3cn(C)c4ncnc(N)c34)ccc21 [GSK2603346] .
Result block: 0

Query block: Specify measured %Inh for CC(=O)Nc1cn2nc(Oc3cccc(NC(=O)c4cccc(C(F)(F)F)c4)c3)ccc2n1 .
Result block: 0

Query block: Specify measured %Inh for COc1cc(Nc2nccc(N3CCC(NC(=O)Nc4ccc5c(c4)OCO5)C3)n2)cc(OC)c1OC (stereo not drawn) [GSK1379766] .
Result block: 0
